Molecular target: Schistosoma mansoni thioredoxin glutathione reductase (SmTGR) (Schistosoma mansoni, UniProt Q962Y6)
Sequence (Q962Y6 1-598): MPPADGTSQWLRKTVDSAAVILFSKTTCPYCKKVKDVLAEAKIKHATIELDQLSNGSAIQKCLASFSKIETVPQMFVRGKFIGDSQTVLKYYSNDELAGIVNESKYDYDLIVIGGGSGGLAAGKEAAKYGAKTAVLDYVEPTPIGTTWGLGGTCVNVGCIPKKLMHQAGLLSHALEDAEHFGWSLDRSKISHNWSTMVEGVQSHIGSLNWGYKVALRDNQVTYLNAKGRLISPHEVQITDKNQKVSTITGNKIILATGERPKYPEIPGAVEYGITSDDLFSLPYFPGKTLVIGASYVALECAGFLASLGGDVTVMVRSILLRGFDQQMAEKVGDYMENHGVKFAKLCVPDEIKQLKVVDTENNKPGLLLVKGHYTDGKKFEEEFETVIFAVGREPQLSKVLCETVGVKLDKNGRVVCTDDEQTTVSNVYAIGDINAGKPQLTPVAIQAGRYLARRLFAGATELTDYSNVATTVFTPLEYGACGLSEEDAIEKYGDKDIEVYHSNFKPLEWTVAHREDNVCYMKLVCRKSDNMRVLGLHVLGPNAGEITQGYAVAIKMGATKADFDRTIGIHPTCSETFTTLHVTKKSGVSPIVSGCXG
Test: SmTGR DTNB assay
Format: biochemical
Kindly state IC50 for each of the entries shown.
One number for each entry, in µM.

What value of IC50 has been recorded for this entry: CC1=C(COc2cccc(C(F)(F)F)c2)C(=O)c2ccccc2C1=O
0.166

Can you handle CC1=C(COc2ccc(C(=O)O)cc2)C(=O)c2ccccc2C1=O next?
0.482

Next compound up: COc1c(F)cc(OCC2=C(C)C(=O)c3ccccc3C2=O)cc1F
0.407

What do you get for CC1=C(COc2ccc(C#N)cc2)C(=O)c2ccccc2C1=O ?
0.462

// each listed compound needs a value for IC50
1. CC1=C(COc2ccc(Br)cc2)C(=O)c2ccccc2C1=O
2. COc1ccc(OCC2=C(C(F)F)C(=O)c3ccccc3C2=O)cc1C(F)(F)F
3. N#Cc1ccc(OCC2=C(C(F)F)C(=O)c3ccccc3C2=O)cc1
4. COc1ccc(OCC2=C(C)C(=O)c3ccccc3C2=O)cc1C(F)(F)F

1: 0.784; 2: 0.046; 3: 0.144; 4: 0.2

Form field: reported IC50 of CC1=C(COc2ccc(Cl)cc2)C(=O)c2ccccc2C1=O
0.457
